Test system: Key Broadleaf Weed and Crop Species
EXPERIMENTAL_PROTOCOL: Post-emergent Test II herbicidal activity (Table 5)
Type: in vivo
SETTINGS: post-emergence, 336 h; BRSNN: oilseed-rape, canola (Brassica napus); 70 g ai/ha; post-emergent; 14 days after application; read-out: Visual Growth Reduction (%) 14 Days After Application BRSNN
Reported pest or weed control at 70 g/ha by item:

>  <SMILES_DATA>
N#Cc1ccc(-c2nc(C(=O)O)c(Cl)c(N)c2F)c(F)c1

>  <pest or weed control at 70 g/ha>
0 to 29%

$$$$
>  <SMILES_DATA>
COC(=O)c1nc(-c2ccc(Br)c(F)c2)nc(N)c1OC

>  <pest or weed control at 70 g/ha>
85 to 94%

$$$$
>  <SMILES_DATA>
Nc1cc(-c2ccc(I)cc2F)nc(C(=O)O)c1Cl

>  <pest or weed control at 70 g/ha>
95 to 100%

$$$$
>  <SMILES_DATA>
COC(=O)c1nc(-c2cc(F)ccc2F)c(F)c(N)c1Cl

>  <pest or weed control at 70 g/ha>
45 to 59%

$$$$
>  <SMILES_DATA>
COC(=O)c1nc(-c2cc(F)c(C(F)F)cc2F)cc(N)c1Cl

>  <pest or weed control at 70 g/ha>
60 to 74%

$$$$
>  <SMILES_DATA>
COC(=O)c1nc(-c2cc(F)c(C#N)cc2F)c(F)c(N)c1Cl

>  <pest or weed control at 70 g/ha>
75 to 84%

$$$$
>  <SMILES_DATA>
COC(=O)c1nc(-c2cc(F)c(C(F)F)cc2F)c(F)c(N)c1Cl

>  <pest or weed control at 70 g/ha>
95 to 100%

$$$$
>  <SMILES_DATA>
C#Cc1ccc(-c2nc(C(=O)OC)c(C=C)c(N)c2F)cc1

>  <pest or weed control at 70 g/ha>
0 to 29%

$$$$
>  <SMILES_DATA>
Nc1cc(-c2c(F)cc(Br)c(F)c2F)nc(C(=O)O)c1Cl

>  <pest or weed control at 70 g/ha>
95 to 100%

$$$$

###

Reported pest or weed control at 35 g/ha by item:
Test system: CIRAR: Canada thistle (Cirsium arvense)
EXPERIMENTAL_PROTOCOL: Post-emergent Test III, herbicidal activity in wheat and barley
Type: in vivo
SETTINGS: Cirsium arvense, post-emergence, 504 h; Table 8; 35 g ai/ha; post-emergent; 21 d; read-out: Visual Growth Reduction (%) 21 Days After Application CIRAR
Experimental: Post-emergent Test III. […] A weighed amount, determined by the highest rate to be tested, of each test compound was placed in a 25 mL glass vial and was dissolved in 4 mL of a 97:3 v/v mixture of acetone and DMSO to obtain concentrated stock solutions. […]
ENDPOINT_NAME: pest or weed control at 35 g/ha

>  <SMILES_DATA>
Nc1c(Cl)c(C(=O)O)nc(-c2ccc(I)c(F)c2)c1Cl

>  <RECORDED_MEASUREMENT>
95 to 100%

$$$$
>  <SMILES_DATA>
Nc1c(Cl)c(C(=O)O)nc(-c2ccc(Br)c(F)c2)c1Cl

>  <RECORDED_MEASUREMENT>
85 to 94%

$$$$
>  <SMILES_DATA>
COc1c(N)nc(-c2ccc(I)c(F)c2)nc1C(=O)O

>  <RECORDED_MEASUREMENT>
45 to 59%

$$$$
>  <SMILES_DATA>
COC(=O)c1nc(-c2ccc(C#N)c(F)c2)c(F)c(N)c1Cl

>  <RECORDED_MEASUREMENT>
85 to 94%

$$$$
>  <SMILES_DATA>
COC(=O)c1nc(-c2ccc(Br)c(F)c2)nc(N)c1OC

>  <RECORDED_MEASUREMENT>
60 to 74%

$$$$
>  <SMILES_DATA>
COC(=O)c1nc(-c2ccc(I)c(F)c2)c(C)c(N)c1Cl

>  <RECORDED_MEASUREMENT>
95 to 100%

$$$$
>  <SMILES_DATA>
COC(=O)c1nc(-c2ccc(I)c(F)c2)nc(N)c1OC

>  <RECORDED_MEASUREMENT>
75 to 84%

$$$$
>  <SMILES_DATA>
COc1c(N)nc(-c2ccc(Br)c(F)c2)nc1C(=O)O

>  <RECORDED_MEASUREMENT>
75 to 84%

$$$$

###

Reported pest or weed control at 70 g/ha by item:
Test system: Key Broadleaf Weed and Crop Species
EXPERIMENTAL_PROTOCOL: Post-emergent Test II herbicidal activity (Table 5)
Format: in vivo
SETTINGS: post-emergence, 336 h; HELAN: sunflower (Helianthus annuus); application rate 70 g ai/ha; 14 days after application; read-out: Visual Growth Reduction (%) 14 Days After Application, HELAN

>  <SMILES_DATA>
Cc1ccc(-c2nc(C(=O)O)c(Cl)c(N)c2F)cc1F

>  <pest or weed control at 70 g/ha>
95 to 100%

$$$$
>  <SMILES_DATA>
Nc1c(F)c(-c2ccc(Br)c(F)c2)nc(C(=O)O)c1Cl

>  <pest or weed control at 70 g/ha>
95 to 100%

$$$$
>  <SMILES_DATA>
COC(=O)c1nc(-c2cccc(F)c2)c(F)c(N)c1Cl

>  <pest or weed control at 70 g/ha>
85 to 94%

$$$$
>  <SMILES_DATA>
C#Cc1ccc(-c2nc(N)c(OC)c(C(=O)O)n2)c(F)c1F

>  <pest or weed control at 70 g/ha>
75 to 84%

$$$$
>  <SMILES_DATA>
COC(=O)c1nc(-c2ccc(Br)c(F)c2F)cc(N)c1Cl

>  <pest or weed control at 70 g/ha>
95 to 100%

$$$$
>  <SMILES_DATA>
COC(=O)c1nc(-c2ccc(I)c(F)c2F)c(F)c(N)c1Cl

>  <pest or weed control at 70 g/ha>
95 to 100%

$$$$
>  <SMILES_DATA>
COC(=O)c1nc(-c2ccc(C(F)(F)F)c(F)c2)nc(N)c1OC

>  <pest or weed control at 70 g/ha>
85 to 94%

$$$$
>  <SMILES_DATA>
COC(=O)c1nc(-c2ccc(F)c(F)c2F)c(F)c(N)c1Cl

>  <pest or weed control at 70 g/ha>
85 to 94%

$$$$
>  <SMILES_DATA>
Nc1c(F)c(-c2ccc(OC(F)F)c(F)c2)nc(C(=O)O)c1Cl

>  <pest or weed control at 70 g/ha>
60 to 74%

$$$$
>  <SMILES_DATA>
COC(=O)c1nc(-c2ccc(I)cc2)nc(N)c1OC

>  <pest or weed control at 70 g/ha>
95 to 100%

$$$$
>  <SMILES_DATA>
Nc1c(F)c(-c2ccc(I)c(F)c2F)nc(C(=O)O)c1Cl

>  <pest or weed control at 70 g/ha>
95 to 100%

$$$$
>  <SMILES_DATA>
Nc1cc(-c2ccc(I)cc2)nc(C(=O)O)c1Cl

>  <pest or weed control at 70 g/ha>
75 to 84%

$$$$
>  <SMILES_DATA>
C#Cc1ccc(-c2nc(C(=O)O)c(Cl)c(N)c2F)c(F)c1F

>  <pest or weed control at 70 g/ha>
45 to 59%

$$$$
>  <SMILES_DATA>
COC(=O)c1nc(-c2ccc(OC(F)F)cc2F)c(F)c(N)c1Cl

>  <pest or weed control at 70 g/ha>
75 to 84%

$$$$
>  <SMILES_DATA>
COC(=O)c1nc(-c2ccc(C(F)F)cc2)c(F)c(N)c1Cl

>  <pest or weed control at 70 g/ha>
95 to 100%

$$$$
>  <SMILES_DATA>
COC(=O)c1nc(-c2ccc(C(F)(F)F)c(F)c2)c(F)c(N)c1Cl

>  <pest or weed control at 70 g/ha>
95 to 100%

$$$$
>  <SMILES_DATA>
Nc1c(F)c(-c2ccc(C(F)(F)F)c(F)c2)nc(C(=O)O)c1Cl

>  <pest or weed control at 70 g/ha>
95 to 100%

$$$$
>  <SMILES_DATA>
C#Cc1ccc(-c2nc(C(=O)O)c(Cl)c(N)c2F)cc1F

>  <pest or weed control at 70 g/ha>
60 to 74%

$$$$
>  <SMILES_DATA>
Cc1ccc(-c2nc(C(=O)O)c(Cl)c(N)c2F)c(F)c1F

>  <pest or weed control at 70 g/ha>
95 to 100%

$$$$

###

System: test plant species in Direct Seeded Rice
EXPERIMENTAL_PROTOCOL: Postemergence herbicidal activity in direct seeded rice (Table 13)
Format: in vivo
SETTINGS: post-emergence, 504 h; BRAPP: broadleaf signalgrass, Brachiaria platyphylla; 35 g ai/ha; read-out: Visual Growth Reduction (%) 21 Days After Application BRAPP

>  <SMILES_DATA>
COC(=O)c1nc(-c2ccc(C#N)c(F)c2)c(F)c(N)c1Cl

>  <pest or weed control at 35 g/ha>
85 to 94%

$$$$
>  <SMILES_DATA>
Nc1cc(-c2ccc(I)cc2F)nc(C(=O)O)c1Cl

>  <pest or weed control at 35 g/ha>
95 to 100%

$$$$
>  <SMILES_DATA>
COC(=O)c1nc(-c2ccc(I)cc2F)cc(N)c1Cl

>  <pest or weed control at 35 g/ha>
95 to 100%

$$$$
>  <SMILES_DATA>
COC(=O)c1nc(-c2ccc(Br)cc2)c(Cl)c(N)c1Cl

>  <pest or weed control at 35 g/ha>
30 to 44%

$$$$
>  <SMILES_DATA>
COc1c(N)nc(-c2cc(F)c(Br)cc2F)nc1C(=O)O

>  <pest or weed control at 35 g/ha>
60 to 74%

$$$$
>  <SMILES_DATA>
Nc1c(Cl)c(C(=O)O)nc(-c2ccc(Br)cc2)c1Cl

>  <pest or weed control at 35 g/ha>
45 to 59%

$$$$
>  <SMILES_DATA>
Nc1cc(-c2ccc(Br)cc2F)nc(C(=O)O)c1Cl

>  <pest or weed control at 35 g/ha>
95 to 100%

$$$$
